- Subject of test: UniProt O43614
- Sequence (O43614 whole entry): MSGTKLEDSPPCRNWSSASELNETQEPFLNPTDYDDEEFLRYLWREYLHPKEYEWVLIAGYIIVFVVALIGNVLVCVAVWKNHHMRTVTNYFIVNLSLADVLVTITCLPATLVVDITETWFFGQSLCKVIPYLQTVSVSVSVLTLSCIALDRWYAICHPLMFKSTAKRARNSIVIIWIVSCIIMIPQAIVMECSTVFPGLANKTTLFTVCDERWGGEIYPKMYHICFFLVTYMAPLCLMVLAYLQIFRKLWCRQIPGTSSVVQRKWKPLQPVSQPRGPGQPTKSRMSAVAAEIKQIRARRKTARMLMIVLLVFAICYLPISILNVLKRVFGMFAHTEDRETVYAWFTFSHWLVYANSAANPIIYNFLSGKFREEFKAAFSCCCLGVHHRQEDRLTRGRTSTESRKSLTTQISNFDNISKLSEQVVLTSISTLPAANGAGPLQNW
- Assay overview: Measurement of orexin type 2 receptor agonist activity (Experimental Example 2-1, FLIPR TETRA, intracellular Ca2+)
- Assay type: cell-based
- Reported conditions: CHO dhfr- cells expressing hOX2R, FLIPR TETRA, Fluo-4AM
Endpoint: log10(EC50) (log10 of the value in nM)
Would you kindly interpret these values as log10 of EC50 expressed in nM?

CN(C)S(=O)(=O)N[C@H]1CCCN(C(=O)OCC(F)(F)F)[C@H]1COC1CCN(c2ncccn2)CC1 (relative stereo) : 2.23
COC(=O)N1CCC[C@H](NS(C)(=O)=O)[C@@H]1CO[C@H]1CC[C@@H](c2c(F)cccc2F)CC1 : 0.40

Q: State its log10(EC50): CN(C)CC(=O)N1CCC[C@H](NS(C)(=O)=O)[C@@H]1CO[C@H]1CC[C@@H](c2ccccc2)CC1 (relative stereo)
Result: 3.00

Q: Retrieve log10(EC50) measured for CC(C)OC(=O)N1CCC[C@H](NS(C)(=O)=O)[C@@H]1COC1CCN(c2ccccc2F)CC1 (relative stereo) and print it.
Result: 2.69

Q: Please look at this compound and report its log10(EC50): CS(=O)(=O)N[C@H]1CCCN(C(=O)[C@@H]2CCC(=O)O2)[C@H]1CO[C@H]1CC[C@@H](c2ccccc2)CC1
Result: 0.97

Q: Hello, please tell me recorded log10(EC50) for this one: CS(=O)(=O)N[C@H]1CCCN(C(=O)C2CC2)[C@H]1CO[C@H]1CC[C@@H](c2ccccc2F)CC1
Result: 0.18
